Record form. Attribute: IC50. Fill in for each entry.
tested on: phosphorylated Akt at serine 473 (pAKTs473) in primary human lung fibroblasts; experiment: High throughput phosphorylated Akt (Ser473) in vitro immunoassay (MSD); type: cell-based; details: Fibroblast, primary human lung fibroblasts (Lonza), 384-well, compound 1 h, PDGF-BB 10 ng/ml 10 min, read-out: mean pIC50, pAKTser473 high throughput immunoassay (converted)

CC[C@H]1COCCN1c1cc(C2(S(C)(=O)=O)CCOCC2)cc(-c2ccc3[nH]c(C)cc3n2)n1 yielded IC50 of 2.51 to 25.1 nM

Reported IC50 ( CC[C@H]1COCCN1c1cc(CS(=O)(=O)N(C)C)nc(-c2ccc3[nH]c(CO)cc3n2)n1 ) = 2.51 to 25.1 nM

Record CC[C@@H]1COCC(=O)N1c1cc(CS(C)(=O)=O)cc(-c2ccc3[nH]c(CNC)cc3n2)n1 , field IC50: 7940 nM

Documented IC50 of CC[C@H]1COCCN1c1cc(C2(S(C)(=O)=O)CCOCC2)nc(-c2ccc3[nH]c(C)cc3n2)n1 : 2.51 to 25.1 nM

The recorded IC50 for CC[C@H]1COCCN1c1cc(CS(C)(=O)=O)nc(-c2ccc3[nH]c(CNC)cc3n2)n1 is 2.51 to 25.1 nM

Entry CNCc1cc2nc(-c3cc(CS(C)(=O)=O)cc(N4CCO[C@H](C)[C@H]4C)n3)ccc2[nH]1 , IC50 reported as 2.51 to 25.1 nM

Item: CCc1cc2nc(-c3nc(CS(C)(=O)=O)cc(N4C(=O)COC[C@@H]4CC)n3)ccc2[nH]1 | IC50: 2.51 to 25.1 nM

* * *

Give IC50 for every item shown.
target: mTOR (Homo sapiens); construct: capturing of endogenously expressed target proteins from cell extracts by a bead-immobilized capturing ligand; endogenous in cells; host or cells: HuT-78 cells (ECACC 88041901), cell lysate; experiment: mTOR kinobeads competition-binding assay; conditions: HuT-78 cell lysate, bead-immobilized capturing ligand, 2 h at 4° C., mean of multiple experiments; read-out: mean pIC50, mTOR kinobeads assay (converted)

Short answer for CC[C@H]1COCCN1c1cc(C2(S(C)(=O)=O)CCOCC2)nc(-c2ccc3[nH]c(CO)cc3n2)n1 : IC50 was ≤ 1.26 nM

Record summary for CC[C@H]1COCCN1c1cc(CS(N)(=O)=O)nc(-c2ccc3[nH]c(CNC)cc3n2)n1 : reported IC50 = ≤ 1.26 nM

Field IC50 (entry CC[C@H]1COCCN1c1cc(CS(C)(=O)=O)nc(-c2ccc3[nH]c(CNC)cc3n2)n1 ) reads ≤ 1.26 nM

Measured IC50 of CC[C@H]1COCCN1c1cc(CS(C)(=O)=O)nc(-c2ccc3[nH]c(CO)cc3n2)n1 : ≤ 1.26 nM

Memo: CC[C@H]1COCC(=O)N1c1cc(C2(S(C)(=O)=O)CCOCC2)cc(-c2ccc3[nH]c(C)cc3n2)n1 , reported IC50: ≤ 1.26 nM

# IC50 of CC[C@H]1COCC(=O)N1c1cc(CS(C)(=O)=O)cc(-c2ccc3[nH]c(CO)cc3n2)n1 = ≤ 1.26 nM

Item: CC[C@@H]1COCC(=O)N1c1cc(CS(C)(=O)=O)cc(-c2ccc3[nH]c(CNC)cc3n2)n1 | IC50: 1260 nM

Per the record, CC[C@H]1COCC(=O)N1c1cc(CS(C)(=O)=O)nc(-c2ccc3[nH]c(C)cc3n2)n1 has IC50 of ≤ 0.2 nM

* * *

Exercise: state measured IC50 for each of the compounds provided.
target: mTOR (Homo sapiens); construct: capturing of endogenously expressed target proteins from cell extracts by a bead-immobilized capturing ligand; endogenous in cells; host or cells: HuT-78 cells (ECACC 88041901), cell lysate; experiment: mTOR kinobeads competition-binding assay; conditions: HuT-78 cell lysate, bead-immobilized capturing ligand, 2 h at 4° C., mean of multiple experiments; read-out: mean pIC50, mTOR kinobeads assay (converted)

// compound CC[C@H]1COCCN1c1cc(CS(N)(=O)=O)cc(-c2ccc3[nH]c(C)cc3n2)n1 , assay mTOR (Homo sapiens), IC50 value: ≤ 1.26 nM

Bench note, mTOR (Homo sapiens): entry CC[C@H]1COCC(=O)N1c1cc(CS(C)(=O)=O)cc(-c2ccc3[nH]c(C)cc3n2)n1 , its IC50 = ≤ 1.26 nM

Lab entry: mTOR (Homo sapiens) assay, compound CC[C@H]1COCCN1c1cc(CS(C)(=O)=O)nc(-c2ccc3[nH]c(C)cc3n2)n1 , IC50 = ≤ 0.316 nM

Fill in: mTOR (Homo sapiens) IC50 for CC[C@H]1COCC(=O)N1c1cc(C2(S(C)(=O)=O)CCOCC2)cc(-c2ccc3[nH]c(CO)cc3n2)n1 = ≤ 0.316 nM

Observed IC50, mTOR (Homo sapiens), CC[C@H]1COCCN1c1cc(CS(=O)(=O)N(C)C)nc(-c2ccc3[nH]c(CNC)cc3n2)n1 : ≤ 1.26 nM

* * *

target: mTOR (Homo sapiens); construct: capturing of endogenously expressed target proteins from cell extracts by a bead-immobilized capturing ligand; endogenous in cells; host or cells: HuT-78 cells (ECACC 88041901), cell lysate; assay: mTOR kinobeads competition-binding assay; settings: HuT-78 cell lysate, selected compounds, mean; read-out: mTOR (mean pIC50 values when tested in the mTOR binding assay) (converted)
quantity_measured: log10 IC50 (log10 of the value in nM)
Remember, log10 of IC50, in nM.

Noted for CC[C@H]1COCCN1c1cc(CS(C)(=O)=O)nc(-c2ccc3[nH]c(CNC)cc3n2)n1 [Example 1] : its log10 IC50 reads -0.10

The reported log10 IC50 of the compound CC[C@H]1COCC(=O)N1c1cc(CS(C)(=O)=O)nc(-c2ccc3[nH]c(C)cc3n2)n1 [Example 14] was -0.70

// field: log10 IC50; key: CC[C@H]1COCCN1c1cc(CS(=O)(=O)N(C)C)nc(-c2ccc3[nH]c(CNC)cc3n2)n1 [Example 16] ; value = -0.20

In plain terms, CC[C@H]1COCC(=O)N1c1cc(CS(C)(=O)=O)cc(-c2ccc3[nH]c(C)cc3n2)n1 [Example 24] has a documented log10 IC50 of -0.30

Documented log10 IC50 of CC[C@H]1COCCN1c1cc(C2(S(C)(=O)=O)CCNCC2)cc(-c2ccc3[nH]c(C)cc3n2)n1 [Example 18] : 0.80

Field log10 IC50 (entry CCc1cc2nc(-c3nc(CS(C)(=O)=O)cc(N4C(=O)COC[C@@H]4CC)n3)ccc2[nH]1 [Example 15] ) reads -0.50

* * *

molecular target: mTOR (Homo sapiens); construct: capturing of endogenously expressed target proteins from cell extracts by a bead-immobilized capturing ligand; endogenous in cells; host or cells: HuT-78 cells (ECACC 88041901), cell lysate; test: mTOR kinobeads competition-binding assay; details: HuT-78 cell lysate, bead-immobilized capturing ligand, 2 h at 4° C., mean of multiple experiments; read-out: mean pIC50, mTOR kinobeads assay (converted)
quantity_measured: IC50

The reported mTOR (Homo sapiens) IC50 of CC[C@H]1COCCN1c1cc(C2(S(C)(=O)=O)CCOCC2)nc(-c2ccc3[nH]c(C)cc3n2)n1 is ≤ 1.26 nM

The compound CCc1cc2nc(-c3nc(CS(C)(=O)=O)cc(N4C(=O)COC[C@@H]4CC)n3)ccc2[nH]1 , tested on mTOR (Homo sapiens), showed IC50 of ≤ 0.316 nM

The reported mTOR (Homo sapiens) IC50 of CC[C@H]1COCCN1c1cc(CS(=O)(=O)NC)nc(-c2ccc3[nH]c(C)cc3n2)n1 is ≤ 0.2 nM

Value (IC50, mTOR (Homo sapiens)) for record CC[C@H]1COCCN1c1cc(CS(=O)(=O)NC)nc(-c2ccc3[nH]c(CO)cc3n2)n1 = ≤ 0.0794 nM

Recorded IC50 for CC[C@H]1COCC(=O)N1c1cc(CS(=O)(=O)N(C)C)cc(-c2ccc3[nH]c(CO)cc3n2)n1 on mTOR (Homo sapiens) was ≤ 1.26 nM

IC50 for mTOR (Homo sapiens) with input CC[C@H]1COCC(=O)N1c1cc(CS(C)(=O)=O)nc(-c2ccc3[nH]c(CO)cc3n2)n1 equals ≤ 0.2 nM

Param item: CC[C@H]1COCCN1c1cc(CS(=O)(=O)N(C)C)nc(-c2ccc3[nH]c(CO)cc3n2)n1 ; param system: mTOR (Homo sapiens); output IC50: ≤ 0.316 nM

* * *

tested on: type I collagen deposition in primary lung fibroblasts derived from human tissue; assay: Type I collagen deposition (scar-in-a-jar) high content screening assay; type: cell-based; details: Primary lung fibroblast, 72 h, human pulmonary fibroblasts, 96-well, TGFβ-1 1 ng/ml 72 h, collagen intensity, read-out: mean pIC50, type I collagen deposition (scar-in-a-jar) (converted)
quantity_measured: IC50

Recorded result, CC[C@H]1COCCN1c1cc(CS(=O)(=O)N(CC)CC)nc(-c2ccc3[nH]c(CNC)cc3n2)n1 , IC50: < 3.98 µM

Looking up CC[C@H]1COCCN1c1cc(C2(S(C)(=O)=O)CCOCC2)nc(-c2ccc3[nH]c(CO)cc3n2)n1 , I found its IC50 recorded as > 3.98 µM

response.value for CC[C@H]1COCCN1c1cc(CS(C)(=O)=O)nc(-c2ccc3[nH]c(CO)cc3n2)n1 (field: IC50) = < 3.98 µM

Lab book: IC50 of CC[C@H]1COCCN1c1cc(CS(N)(=O)=O)nc(-c2ccc3[nH]c(CNC)cc3n2)n1 noted as > 3.98 µM
